# Test system: Vero E6 cells
# measurement-parameters: no virus; Table 1 compounds
Non-standard residues stand in square brackets, D forms with d. Residues, ends and D or L forms follow the SMILES beside them. *: point of attachment. Nva = CCC[C@H](N)C(=O)O; Cbz = O=C(OCc1ccccc1)*
reported-endpoint: Vero E6 cytotoxicity efficacy
# answer = value followed by unit

- molecule: "COc1ccc2cc(-c3cc(-c4cc(Cl)cc(Cl)c4)nn3[C@@H](C)c3ccc(C(=O)NCCC(=O)O)cc3)ccc2c1"
  Vero E6 cytotoxicity efficacy: "80.04%"

Hi team, please reply with Vero E6 cytotoxicity efficacy for each item in this list.
1. Cc1[nH]c(/C=C2\C(=O)Nc3cc(-c4ccccc4)ccc32)c(C)c1CCC(=O)O [SU 16f]
2. CC1(C)OC2=C(C(=O)c3ccccc3C2=O)[C@H](NCc2ccccc2)[C@@H]1O
3. O=C(Nc1cc(C(F)(F)F)cc(C(F)(F)F)c1)c1cnc(Cl)nc1C(F)(F)F
4. CCC[C@@H](C=O)NC(=O)[C@H](CC(C)C)NC(=O)[C@H](CC(C)C)NC(=O)OCc1ccccc1 [MG-115] (Cbz-Leu-Leu-[Nva]-aldehyde)
5. C/C1=C2/[N-][C@H]([C@H](CC(N)=O)[C@@]2(C)CCC(=O)NC[C@@H](C)OP(=O)([O-])O[C@H]2[C@@H](O)[C@@H](n3cnc4cc(C)c(C)cc43)O[C@@H]2CO)[C@]2(C)N=C(/C(C)=C3N=C(/C=C4N=C1[C@@H](CCC(N)=O)C\4(C)C)[C@@H](CCC(N)=O)[C@]\3(C)CC(N)=O)[C@@H](CCC(N)=O)[C@]2(C)CC(N)=O.[Co+3].[OH-] [hydroxocobalamin]

output:
23.57%
0%
0%
115.48%
0%
